I'd be grateful if you could share measured total protein half-life in vivo for these entries.
Assay: total protein half-life in vivo (active degradation + dilution); higher = more stable protein
Settings: wild type E. coli NCM3722; growth: N-lim chemostat; doubling time 12 h
Mention the unit after the number when you answer.

Enquiry: Give the measured total protein half-life in vivo of MYQVVASDLDGTLLSPDHTLSPYAKETLKLLTARGINFVFATGRHHVDVGQIRDNLEIKSYMITSNGARVHDLDGNLIFAHNLDRDIASDLFGVVNDNPDIITNVYRDDEWFMNRHRPEEMRFFKEAVFQYALYEPGLLEPEGVSKVFFTCDSHEQLLPLEQAINARWGDRVNVSFSTLTCLEVMAGGVSKGHALEAVAKKLGYSLKDCIAFGDGMNDAEMLSMAGKGCIMGSAHQRLKDLHPELEVIGTNADDAVPHYLRKLYLS .
Return: 5.36 h

Enquiry: Can you check MKDVVDKCSTKGCAIDIGTVIDNDNCTSKFSRFFATREEAESFMTKLKELAAATSSADEGASVAYKIKDLEGQVELDAAFTFSCQAEMIIFELSLRSLA next?
Return: 3.38 h

* * *

Assay: total protein half-life in vivo (active degradation + dilution); higher = more stable protein
Settings: wild type E. coli NCM3722; growth: C-lim chemostat; doubling time 6 h
Lab note: anything with total protein half-life in vivo at or over 6 h counts as criterion met; the rest go in criterion not met.

Enquiry: Test whether the sequence MPLHNLTRFPRLEFIGAPTPLEYLPRFSDYLGREIFIKRDDVTPMAMGGNKLRKLEFLAADALREGADTLITAGAIQSNHVRQTAAVAAKLGLHCVALLENPIGTTAENYLTNGNRLLLDLFNTQIEMCDALTDPNAQLEELATRVEAQGFRPYVIPVGGSNALGALGYVESALEIAQQCEGAVNISSVVVASGSAGTHAGLAVGLEHLMPESELIGVTVSRSVADQLPKVVNLQQAIAKELELTASAEILLWDDYFAPGYGVPNDEGMEAVKLLARLEGILLDPVYTGKAMAGLIDGISQKRFKDEGPILFIHTGGAPALFAYHPHV records total protein half-life in vivo of 6 h or higher.
Return: criterion not met

Enquiry: Can you check MTDNTYQPAKVWTWDKSAGGAFANINRPVSGPTHEKTLPVGKHPLQLYSLGTPNGQKVTIMLEELLALGVTGAEYDAWLIRIGDGDQFSSGFVEVNPNSKIPALRDHTHNPPIRVFESGSILLYLAEKFGYFLPQDLAKRTETMNWLFWLQGAAPFLGGGFGHFYHYAPVKIEYAINRFTMEAKRLLDVLDKQLAQHKFVAGDEYTIADMAIWPWFGNVVLGGVYDAAEFLDAGSYKHVQRWAKEVGERPAVKRGRIVNRTNGPLNEQLHERHDASDFETNTEDKRQG next?
Return: criterion not met

Enquiry: Can you check MIEKIWSGESPLWRLLLPLSWLYGLVSGAIRLCYKLKLKRAWRAPVPVVVVGNLTAGGNGKTPVVVWLVEQLQQRGIRVGVVSRGYGGKAESYPLLLSADTTTAQAGDEPVLIYQRTDAPVAVSPVRSDAVKAILAQHPDVQIIVTDDGLQHYRLARDVEIVVIDGVRRFGNGWWLPAGPMRERAGRLKSVDAVIVNGGVPRSGEIPMHLLPGQAVNLRTGTRCDVAQLEHVVAMAGIGHPPRFFATLKMCGVQPEKCVPLADHQSLNHADVSALVSAGQTLVMTEKDAVKCRAFAEENWWYLPVDAQLSGDEPAKLLTQLTLLASGN next?
Return: criterion met

* * *

Test: total protein half-life in vivo (active degradation + dilution); higher = more stable protein
Conditions: E. coli NCM3722 delta-clpP delta-lon delta-hslV; growth: N-lim chemostat; doubling time 6 h
I'd be grateful if you could share measured total protein half-life in vivo for these entries.
Reply with just the number (in h).

Enquiry: Give the measured total protein half-life in vivo of MNKVVLLCRPGFEKECAAEITDKAGQREIFGFARVKENAGYVIYECYQPDDGDKLIRELPFSSLIFARQWFVVGELLQHLPPEDRITPIVGMLQGVVEKGGELRVEVADTNESKELLKFCRKFTVPLRAALRDAGVLANYETPKRPVVHVFFIAPGCCYTGYSYSNNNSPFYMGIPRLKFPADAPSRSTLKLEEAFHVFIPADEWDERLANGMWAVDLGACPGGWTYQLVKRNMWVYSVDNGPMAQSLMDTGQVTWLREDGFKFRPTRSNISWMVCDMVEKPAKVAALMAQWLVNGWCRETIFNLKLPMKKRYEEVSHNLAYIQAQLDEHGINAQIQARQLYHDREEVTVHVRRIWAAVGGRRDER [P0ADR6] .
Return: 5.24

Enquiry: Can you check MKRASLLTLTLIGAFSAIQAAWAVDYPLPPTGSRLVGQNQTYTVQEGDKNLQAIARRFDTAAMLILEANNTIAPVPKPGTTITIPSQLLLPDAPRQGIIVNLAELRLYYYPPGENIVQVYPIGIGLQGLETPVMETRVGQKIPNPTWTPTAGIRQRSLERGIKLPPVVPAGPNNPLGRYALRLAHGNGEYLIHGTSAPDSVGLRVSSGCIRMNAPDIKALFSSVRTGTPVKVINEPVKYSVEPNGMRYVEVHRPLSAEEQQNVQTMPYTLPAGFTQFKDNKAVDQKLVDKALYRRAGYPVSVSSGATPAASNAPSVESAQNGEPEQGNMLRVTQ next?
Return: 5.45

Enquiry: Can you check MSKVKSITRESWILSTFPEWGSWLNEEIEQEQVAPGTFAMWWLGCTGIWLKSEGGTNVCVDFWCGTGKQSHGNPLMKQGHQMQRMAGVKKLQPNLRTTPFVLDPFAIRQIDAVLATHDHNDHIDVNVAAAVMQNCADDVPFIGPKTCVDLWIGWGVPKERCIVVKPGDVVKVKDIEIHALDAFDRTALITLPADQKAAGVLPDGMDDRAVNYLFKTPGGSLYHSGDSHYSNYYAKHGNEHQIDVALGSYGENPRGITDKMTSADMLRMGEALNAKVVIPFHHDIWSNFQADPQEIRVLWEMKKDRLKYGFKPFIWQVGGKFTWPLDKDNFEYHYPRGFDDCFTIEPDLPFKSFL next?
Return: 5.04

Enquiry: Can you check MRKIALILAMLLIPCVSFAGLLGSSSSTTPVSKEYKQQLMGSPVYIQIFKEERTLDLYVKMGEQYQLLDSYKICKYSGGLGPKQRQGDFKSPEGFYSVQRNQLKPDSRYYKAINIGFPNAYDRAHGYEGKYLMIHGDCVSIGCYAMTNQGIDEIFQFVTGALVFGQPSVQVSIYPFRMTDANMKRHKYSNFKDFWEQLKPGYDYFEQTRKPPTVSVVNGRYVVSKPLSHEVVQPQLASNYTLPEAK [P0AA99] next?
Return: 0.797

Enquiry: Can you check MKYVFIEKHQAEFSIKAMCRVLRVARSGWYTWCQRRTRISTRQQFRQHCDSVVLAAFTRSKQRYGAPRLTDELRAQGYPFNVKTVAASLRRQGLRAKASRKFSPVSYRAHGLPVSENLLEQDFYASGPNQKWAGDITYLRTDEGWLYLAVVIDLWSRAVIGWSMSPRMTAQLACDALQMALWRRKRPRNVIVHTDRGGQYCSADYQAQLKRHNLRGSMSAKGCCYDNACVESFFHSLKVECIHGEHFISREIMRATVFNYIECDYNRWRRHSWCGGLSPEQFENKNLA [P0CF81] next?
Return: 5.16

Enquiry: Can you check MKFKVIALAALMGISGMAAQANELPDGPHIVTSGTASVDAVPDIATLAIEVNVAAKDAATAKKQADERVAQYISFLELNQIAKKDISSANLRTQPDYDYQDGKSILKGYRAVRTVEVTLRQLDKLNSLLDGALKAGLNEIRSVSLGVAQPDAYKDKARKAAIDNAIHQAQELANGFHRKLGPVYSVRYHVSNYQPSPMVRMMKADAAPVSAQETYEQAAIQFDDQVDVVFQLEPVDQQPAKTPAAQ [P0ADS6] next?
Return: 6.45

Enquiry: Can you check MSVIETATVPLAQQQADALLNVKDLRVTFSTPDGDVTAVNDLNFSLRAGETLGIVGESGSGKSQTAFALMGLLAANGRIGGSATFNGREILNLPEHELNKLRAEQISMIFQDPMTSLNPYMRVGEQLMEVLMLHKNMSKAEAFEESVRMLDAVKMPEARKRMKMYPHEFSGGMRQRVMIAMALLCRPKLLIADEPTTALDVTVQAQIMTLLNELKREFNTAIIMITHDLVVVAGICDKVLVMYAGRTMEYGNARDVFYQPVHPYSIGLLNAVPRLDAEGETMLTIPGNPPNLLRLPKGCPFQPRCPHAMEICSSAPPLEEFTPGRLRACFKPVEELL next?
Return: 5.38

Enquiry: Can you check MKYRIALAVSLFALSAGSYATTLCQEKEQNILKEISYAEKHQNQNRIDGLNKALSEVRANCSDSQLRADHQKKIAKQKDEVAERQQDLAEAKQKGDADKIAKRERKLAEAQEELKKLEARDY next?
Return: 3.72

Enquiry: Can you check MSTFKPLKTLTSRRQVLKAGLAALTLSGMSQAIAKDELLKTSNGHSKPKAKKSGGKRVVVLDPGHGGIDTGAIGRNGSKEKHVVLAIAKNVRSILRNHGIDARLTRSGDTFIPLYDRVEIAHKHGADLFMSIHADGFTNPKAAGASVFALSNRGASSAMAKYLSERENRADEVAGKKATDKDHLLQQVLFDLVQTDTIKNSLTLGSHILKKIKPVHKLHSRNTEQAAFVVLKSPSVPSVLVETSFITNPEEERLLGTAAFRQKIATAIAEGVISYFHWFDNQKAHSKKR next?
Return: 5.02

Enquiry: Can you check MKYSLGPVLWYWPKETLEEFYQQAATSSADVIYLGEAVCSKRRATKVGDWLEMAKSLAGSGKQIVLSTLALVQASSELGELKRYVENGEFLIEASDLGVVNMCAERKLPFVAGHALNCYNAVTLKILLKQGMMRWCMPVELSRDWLVNLLNQCDELGIRNQFEVEVLSYGHLPLAYSARCFTARSEDRPKDECETCCIKYPNGRNVLSQENQQVFVLNGIQTMSGYVYNLGNELASMQGLVDVVRLSPQGTDTFAMLDAFRANENGAAPLPLTANSDCNGYWRRLAGLELQA next?
Return: 3.35

Data provenance is the supplement of paper PMC11246515.
